# Tested System: Collagenase 3 (Homo sapiens)
# Assay Overview: NVS_ENZ_hMMP13: NovaScreen (NVS) Enzymatic Assay for human Matrix Metalloproteinase-13 (MMP13) (AID 2283182)
# Procedure: NVS_ENZ_hMMP13 is a biochemical, single-readout assay that uses extracted gene-proteins in a cell-free assay. Measurements were taken 1 hour after chemical dosing in a 96-well plate.NVS_ENZ_hMMP13 is one of one assay component(s) measured or calculated from the NVS_ENZ_hMMP13 assay. […] This assay endpoint, NVS_ENZ_hMMP13, was analyzed in the positive analysis fitting direction relative to DMSO as the negative control and baseline of activity. […]
Results filed as inconclusive are left out. The source made the active and inactive calls. How the source made its calls: active means hit-call score of the fitted dose curve at least 0.9, where 1 is the maximum; inconclusive means response in the unintended direction; inactive means score below 0.9.
Please answer using one outcome listed in TRUE (active), FALSE (inactive)

INSERT INTO results (molecule, assigned_class) VALUES
  ('O=C(O)C(F)(F)C(F)(F)C(F)(F)C(F)(F)C(F)(F)C(F)(F)C(F)(F)F', 'FALSE'),
  ('O=C(Nc1ccccc1)Nc1cnns1', 'FALSE'),
  ('CC[C@H](C)[C@H]1O[C@]2(C=C[C@@H]1C)C[C@@H]1C[C@@H](C/C=C(\C)[C@@H](O[C@H]3C[C@H](OC)[C@@H](O[C@H]4C[C@H](OC)[C@@H](O)[C@H](C)O4)[C@H](C)O3)[C@@H](C)/C=C/C=C3\CO[C@@H]4[C@H](O)C(C)=C[C@@H](C(=O)O1)[C@]34O)O2 (tested in a mixture with another compound)', 'TRUE');

Lab note: next molecule to report on.
Short answer needed: outcome of this test for COC(=O)c1ccccc1S(=O)(=O)NC(=O)Nc1nc(C)nc(OC)n1 ?
FALSE

---

# Assay Overview: ACEA_ER_AUC_viability: ACEA Biosciences xCELLigence Real-Time Cell Analysis on Estrogen Receptor Agonism for Viability (AID 2283782);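 further: continuous compound exposure with impedance area under curve over 80 h; hit means loss of impedance signal meaning reduced cell growth or viability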
Records with an inconclusive call do not appear. The source made the active and inactive calls. The calls were made as follows: active = hit-call score of the fitted dose curve at least 0.9, where 1 is the maximum; inconclusive = response in the unintended direction; inactive = score below 0.9.
Please answer using one outcome listed in T = active, F = inactive

// below: answered compounds
INSERT INTO measurements (compound, assigned_class) VALUES
  ('CNC(=O)Oc1ccccc1OC(C)C', 'F'),
  ('COP(=S)(OC)Oc1ccc(SC)c(C)c1', 'F'),
  ('CCOCN(C(=O)CCl)c1c(C)cccc1CC', 'T');

Short answer needed: outcome of this test for N#Cc1c(Cl)c(Cl)c(Cl)c(C#N)c1Cl ?
T

Short answer needed: outcome of this test for O=C(Nc1ccccc1)Nc1cnns1 ?
F

Short answer needed: outcome of this test for CCc1ccc(C(=O)NN(C(=O)c2cc(C)cc(C)c2)C(C)(C)C)cc1 ?
F

Short answer needed: outcome of this test for CCCN(CCOc1c(Cl)cc(Cl)cc1Cl)C(=O)n1ccnc1 ?
T

Short answer needed: outcome of this test for Oc1cc(Cl)ccc1Oc1ccc(Cl)cc1Cl ?
T

Short answer needed: outcome of this test for CC[C@H](C)[C@H]1O[C@]2(C=C[C@@H]1C)C[C@@H]1C[C@@H](C/C=C(\C)[C@@H](O[C@H]3C[C@H](OC)[C@@H](O[C@H]4C[C@H](OC)[C@@H](O)[C@H](C)O4)[C@H](C)O3)[C@@H](C)/C=C/C=C3\CO[C@@H]4[C@H](O)C(C)=C[C@@H](C(=O)O1)[C@]34O)O2 (tested in a mixture with another compound) ?
T
